Experiment: In vitro cytotoxicity against renal cancer cells.
Assay type: functional
Details: Homo sapiens, Cancer cell lines; read-out: Log LC50 (the source's name) (converted)
# CC50 annotations
Your answer should be a plain number; it is taken to be in µM.

Here are 3 compounds together with their reported answers.
CC1=C(N2CC2)C(=O)c2[nH]c3c(c2C1=O)CCC3O (stereo not given) : 18.6
COC1CCc2c1[nH]c1c2C(=O)C(C)=C(N2CC2)C1=O (stereo not given) : 26.3
CC(=O)OCc1[nH]c2c(c1C)C(=O)C(C)=C(N1CC1)C2=O : 72.4

**Q:** What value of CC50 has been recorded for this entry: CC1=C(N2CC2)C(=O)c2[nH]c(CO)c(C)c2C1=O
**A:** 58.9
